Test system: Zika virus NS2B-NS3 protease (linked construct)
Assay: Primary screen NINDS Rhodamine qHTS for Zika virus inhibitors (AID 1347160); further: nearly all actives have a fitted effect of over 55% in size
Conditions: purified NS2B-NS3 protease, Rhodamine110 substrate fluorescence; series mostly up to 57.1 µM
Results filed as inconclusive are left out. Active and inactive are the calls of the source. The call rests on the fitted dose curve; in most records, active means well fitted inhibition curve with a large enough effect; inconclusive means small, poorly fitted or top-dose-only effect; inactive means no such curve, though single readings can be large or run the other way.
endpoint: outcome

Sample answers from the record:
Oc1cc(-c2nc(-c3ccccc3)[nH]c2-c2ccncc2)ccc1Cl: inactive
CCc1ccc(C(=O)Nc2cc(CN3CCN(C)CC3)cc(C(F)(F)F)c2)cc1C#Cc1cnc2ccnn2c1: inactive
CCC[C@H]1C[C@H](C(=O)N[C@@H]([C@@H]2O[C@@H](SC)[C@@H](O)[C@@H](O)[C@@H]2O)[C@H](C)Cl)N(C)C1: inactive
N#Cc1c(C2CCNCC2)cc(-c2c(O)cccc2OCC2CC2)nc1N: inactive

Now let's try a different one.
Inquiry: Query for Zika virus NS2B-NS3 protease (linked construct): what outcome does the record show for CC(C)(N)c1ccc(-c2nc3ccccc3nc2-c2ccccc2)cc1 ?
Reply text: inactive

---

Test system: HeLa
Experiment: Primary qHTS to identify gynecologic anti-cancer compounds using libraries of approved drugs and bioactive compounds (AID 1345084); further: nearly all actives have a fitted effect of over 55% in size
Conditions: Gynecologic cancer cell panel viability, ATPlite luminescence, 48 h; series mostly up to 57.5 µM
Records with an inconclusive call do not appear. The source made the active and inactive calls. Calls come from the whole dose curve; as a rule, active = well fitted cell-killing curve with a large enough effect; inconclusive = small, poorly fitted or top-dose-only effect, or effect the other way; inactive = flat fitted curve, though single readings scatter.
A correct response names exactly one class from class 1 for active, class 0 for inactive

Examples with answers:
c1ccc2c(Oc3nc(Nc4ccc(N5CCOCC5)cc4)c4ncn(C5CCCCC5)c4n3)cccc2c1: class 0
CCc1nc(-c2cccc(C)c2)c(-c2ccnc(NC(=O)c3ccccc3)c2)s1: class 0
C[N+]1(C)[C@@H]2C[C@@H](OC(=O)C(O)(c3cccs3)c3cccs3)C[C@H]1[C@@H]1O[C@@H]12: class 0
Oc1cc(-c2nc(-c3ccccc3)[nH]c2-c2ccncc2)ccc1Cl: class 0
OCCNC1CCCc2c1[nH]c1ccc(-c3ccccc3)cc21 (stereo unspecified): class 1
Cc1cn([C@@H]2O[C@H](CO)[C@@H](O)[C@H]2F)c(=O)[nH]c1=O: class 0
Cc1ccc(-n2[nH]c(C)c(N=Nc3cccc(-c4cccc(C(=O)O)c4)c3O)c2=O)cc1C: class 0
O=C(Nc1cc2cc[nH]c2cn1)c1ccccc1: class 1
Cc1ccccc1C(=O)Nc1ccc(C(=O)N2CCCC(O)c3cc(Cl)ccc32)c(C)c1 (stereo unspecified): class 0
CS(=O)(=O)N1CCc2c(-c3cnc(N)nc3)nc(N3CCOCC3)nc21: class 1

Consider now this further molecule.
Inquiry: Tell me the assay call for C=CC(=O)Nc1ccc2ncnc(Nc3ccc(OCc4cccc(F)c4)c(Cl)c3)c2c1 please.
Reply text: class 0

---

Test: qHTS Screen of the MIPE 4.0 Collection Against Ewings Sarcoma (EW8) (AID 1259255); further: nearly all actives have a fitted effect of over 35% in size;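 on viability: 100% = DMSO-treated cells and 0% = medium-only wells without cells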
Details: EW8 Ewing sarcoma viability, CellTiter-Glo, 48 h; series mostly up to 45.8 µM
Inconclusive results are not listed. Activity calls are given as the source filed them. Calls follow the shape of the dose curve; as a rule, active = well fitted inhibition curve with a large enough effect; inconclusive = small, poorly fitted or top-dose-only effect; inactive = no such curve, though single readings can be large or run the other way.
Select the correct class. Options are Yes = active, No = inactive and nothing else.

Inquiry: What call does the record list for C=CC(=O)Nc1cccc(Nc2nc(NC3CCC(N(C)C)CC3)nc3c2ncn3C(C)C)c1 (centres undefined) ?
Reply text: Yes

Inquiry: Also, Cn1c(Nc2ccc(C(F)(F)F)cc2)nc2cc(Oc3ccnc(-c4ncc(C(F)(F)F)[nH]4)c3)ccc21 please.
Reply text: Yes

Inquiry: // same read-out, input: N#Cc1c(NC(=O)c2cccc3ccccc23)sc2c1CCCC2
Reply text: Yes

Inquiry: Then OCC(O)C(O)C(O)CO (centres undefined) ?
Reply text: No
